Biological target: cdc2/cyclinB (Homo sapiens, UniProt P06493)
Sequence (P06493 whole entry): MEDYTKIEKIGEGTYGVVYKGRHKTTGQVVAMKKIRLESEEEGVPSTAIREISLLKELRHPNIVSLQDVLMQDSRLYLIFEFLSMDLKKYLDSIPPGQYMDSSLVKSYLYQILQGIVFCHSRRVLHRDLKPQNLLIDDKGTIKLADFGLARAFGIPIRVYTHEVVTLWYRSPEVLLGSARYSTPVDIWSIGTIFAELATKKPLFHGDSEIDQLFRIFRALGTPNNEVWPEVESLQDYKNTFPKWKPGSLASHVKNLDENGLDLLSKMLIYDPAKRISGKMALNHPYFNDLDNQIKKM
Sequence (P14635 whole entry, further chain): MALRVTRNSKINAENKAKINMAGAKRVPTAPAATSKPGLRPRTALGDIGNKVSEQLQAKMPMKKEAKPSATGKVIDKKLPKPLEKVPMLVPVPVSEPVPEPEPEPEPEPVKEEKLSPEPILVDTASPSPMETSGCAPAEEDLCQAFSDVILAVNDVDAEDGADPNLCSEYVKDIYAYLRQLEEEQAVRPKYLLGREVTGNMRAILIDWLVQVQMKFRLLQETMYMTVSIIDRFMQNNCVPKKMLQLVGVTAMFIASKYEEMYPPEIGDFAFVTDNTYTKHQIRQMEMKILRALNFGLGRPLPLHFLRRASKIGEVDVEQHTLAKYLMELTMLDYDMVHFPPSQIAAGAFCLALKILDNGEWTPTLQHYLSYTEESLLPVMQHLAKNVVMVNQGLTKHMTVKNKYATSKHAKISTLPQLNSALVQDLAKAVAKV
Test: Cyclin-Dependent Kinase Assay cdc2/cyclinB
measured.quantity: IC50 (nM)

Examples with answers:
- entry.smiles: "O=c1ccc2cnc(Nc3ccc4nn[nH]c4c3)nc2n1CC(F)(F)F"
  IC50 (nM): 2000
- entry.smiles: "CCCCn1c(=O)ccc2cnc(Nc3ccc(S(N)(=O)=O)cc3)nc21"
  IC50 (nM): 45

A = CCCn1c(=O)ccc2cnc(Nc3cc(Cl)cc(Cl)c3)nc21
B = O=c1ccc2cnc(Nc3ccc(N4CCC(CCN5CCOCC5)CC4)cc3)nc2n1C1CCCCC1
C = CCCCn1c(=O)ccc2cnc(Nc3ccc(F)cc3F)nc21
Output the entries ranked by IC50 from maximum down to minimum. To answer, write out the labels according to the requested order.
C, B, A

* * *

Biological target: cdk4/D (Homo sapiens, UniProt P11802)
Sequence (P11802 whole entry): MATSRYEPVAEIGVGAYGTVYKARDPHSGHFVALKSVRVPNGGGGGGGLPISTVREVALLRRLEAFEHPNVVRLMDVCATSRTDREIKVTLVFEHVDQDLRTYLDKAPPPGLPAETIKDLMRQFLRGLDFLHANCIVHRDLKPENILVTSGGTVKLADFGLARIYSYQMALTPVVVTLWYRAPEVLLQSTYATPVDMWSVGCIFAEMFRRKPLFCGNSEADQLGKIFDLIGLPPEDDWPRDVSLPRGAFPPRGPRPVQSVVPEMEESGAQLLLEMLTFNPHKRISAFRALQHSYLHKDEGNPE
Sequence (P24385 whole entry, further chain): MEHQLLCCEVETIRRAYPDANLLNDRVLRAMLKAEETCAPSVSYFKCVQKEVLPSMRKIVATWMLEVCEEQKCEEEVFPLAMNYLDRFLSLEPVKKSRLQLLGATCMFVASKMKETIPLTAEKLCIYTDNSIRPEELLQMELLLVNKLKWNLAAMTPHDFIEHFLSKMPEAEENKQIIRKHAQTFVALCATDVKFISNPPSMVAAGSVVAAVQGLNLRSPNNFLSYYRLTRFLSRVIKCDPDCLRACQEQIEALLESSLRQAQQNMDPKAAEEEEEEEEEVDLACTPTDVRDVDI
Test: Cyclin-Dependent Kinase 4 (cdk4) Assay
Type: biochemical
Conditions: read-out: cdk4/D IC50
measured.quantity: IC50 (nM)

Examples with answers:
- compound: "O=c1ccc2cnc(Nc3ccc4[nH]nnc4c3)nc2n1C1CCCC1"
  result.number: 42
- compound: "O=c1ccc2cnc(Nc3ccc(C(F)(F)F)cc3)nc2n1CC1CC1"
  result.number: 460
- compound: "CCCn1c(=O)ccc2cnc(Nc3ccccc3)nc21"
  result.number: 357
- compound: "CCC(C)n1c(=O)ccc2cnc(Nc3ccc(OC)c(OC)c3)nc21 (stereo not drawn)"
  result.number: 262
- compound: "CCn1c(=O)ccc2cnc(Nc3ccc(OC(F)(F)F)c(Br)c3)nc21"
  result.number: 3600
- compound: "CCC(C)n1c(=O)ccc2cnc(Nc3ccc(NC(=O)OC(C)(C)C)cc3)nc21 (stereo not drawn)"
  result.number: 113

a = CCCn1c(=O)ccc2cnc(Nc3ccc(N(C)C(C)=O)cc3)nc21
b = CCCCn1c(=O)ccc2cnc(Nc3cc(F)cc(F)c3)nc21
c = CC(=O)Nc1c(F)cc(Nc2ncc3ccc(=O)n(CC4CC4)c3n2)cc1Cl
// ascending sort on recorded IC50 To answer, write out the labels according to the requested order.
a, b, c
(a: 160 nM, b: 1900 nM, c: 2800 nM)

* * *

Biological target: Cdk5/p25 (Homo sapiens, UniProt Q00535)
Experiment: Cyclin-Dependent Kinase 5 High Throughput Screening (cdk5-HTS) Assay
Format: biochemical
Conditions: high throughput screen
Method: Cyclin-Dependent Kinase 5 High Throughput Screening (cdk5-HTS) Assay Enzyme assays for IC50 determinations were performed in 96-Pierce Reacti-Bind™ White Opaque Glutatione Coated Plates (Cat. No. 15240B). […]
measured.quantity: IC50 (nM)

- compound: "CC(=O)Nc1cc(Nc2ncc3ccc(=O)n(C(C)C)c3n2)ccc1C#N [Example 424]"
  tested.target: "Cdk5/p25 (Homo sapiens, UniProt Q00535)"
  measured.quantity: "IC50"
  result.number: 39
- compound: "CCCCn1c(=O)ccc2cnc(Nc3cc(Cl)c(O)c(Cl)c3)nc21 [Example 384]"
  tested.target: "Cdk5/p25 (Homo sapiens, UniProt Q00535)"
  measured.quantity: "IC50"
  result.number: 91.5
- compound: "CC(C)n1c(=O)ccc2cnc(Nc3ccc(F)c(C(F)(F)F)c3)nc21 [Example 407]"
  tested.target: "Cdk5/p25 (Homo sapiens, UniProt Q00535)"
  measured.quantity: "IC50"
  result.number: 56

I = CCC(C)n1c(=O)ccc2cnc(Nc3ccc4[nH]nnc4c3)nc21 (stereo not shown) [Example 449]
II = Cn1c(=O)ccc2cnc(Nc3ccc(C#N)c(C(F)(F)F)c3)nc21 [Example 620]
Compare I and II by numeric IC50 and name the larger one. Identify your selection by its label.
II
(II: 420 nM, I: 7.8 nM)
